Conditions: human
Recorded Hepatotoxicity (choleostasis) values for a group of molecules are listed next.
Number, no unit, nothing else.

Some entries whose results are on file:
Nc1nc(N)nc(Nc2ccc([As]3SCC(CO)S3)cc2)n1 (stereo not drawn); 0
CC(C(=O)O)c1ccc(CC2CCCC2=O)cc1 (stereo not drawn); 0
Cc1cc(=O)n(-c2ccccc2)n1C [ANTIPYRINE]; 1
O=c1[nH]c2ccccc2n1C1CCN(CCCC(c2ccc(F)cc2)c2ccc(F)cc2)CC1 [PIMOZIDE]; 0
OCCN1CCN(CCCN2c3ccccc3Sc3ccc(C(F)(F)F)cc32)CC1; 4
Sc1ncnc2[nH]ncc12; 0

Asked: Given CC(NN)c1ccccc1 (stereo not drawn) , state its recorded Hepatotoxicity (choleostasis).
Given back: 0

Asked: Given CNC(=O)c1cccc2c(Nc3ccc(NS(C)(=O)=O)cc3OC)c3cccc(C)c3nc12 , state its recorded Hepatotoxicity (choleostasis).
Given back: 0

Asked: Given CN(C)S(=O)(=O)c1ccc2c(c1)N(CCCN1CCC(CCO)CC1)c1ccccc1S2 , state its recorded Hepatotoxicity (choleostasis).
Given back: 0

Asked: Given C#C[C@]1(O)CC[C@H]2[C@@H]3CCC4=Cc5oncc5C[C@]4(C)[C@H]3CC[C@@]21C , state its recorded Hepatotoxicity (choleostasis).
Given back: 8

###

Conditions: human, serum
Recorded Hepatotoxicity (acute) values for a group of compounds are listed next.

Some entries whose results are on file:
CCN1CCC[C@H]1CNC(=O)c1c(O)c(Cl)cc(Cl)c1OC [RACLOPRIDE]; 0
O=C(NO)c1ccc(O)c(O)c1; 1
CCOC(=O)C1=C(C)NC(C)=C(C(=O)OC)C1c1cccc(Cl)c1Cl (stereo not given) [FELODIPINE]; 0
CC(=O)OCC(CCn1cnc2cnc(N)nc21)COC(C)=O [FAMCICLOVIR]; 1
O=c1[nH]cnc2c1ncn2[C@H]1CC[C@@H](CO)O1 [DIDANOSINE]; 27
NCCS [CYSTEAMINE]; 1
CCOC(=O)C1(c2ccccc2)CCN(CCC(O)c2ccccc2)CC1 (stereo not given) [PHENOPERIDINE]; 1
O=C1NCCN1c1ncc([N+](=O)[O-])s1 [NIRIDAZOLE]; 0
O=C(COCCOCCOCC(=O)Nc1c(I)cc(I)c(C(=O)O)c1I)Nc1c(I)cc(I)c(C(=O)O)c1I [IOTROXIC ACID]; 0

Please find the next compound below.
Asked: Given CC(C)NCC(O)COc1ccc(COCCOC(C)C)cc1 (stereo not given) [BISOPROLOL] , state its recorded Hepatotoxicity (acute).
Given back: 0

###

Assay: Highest frequency of acute liver toxicity observed during clinical trials, expressed as a percentage. [column '% AIGUE' in source]
Settings: human
Measurement type: Hepatotoxicity (acute) (%)
Please state the figure in %; there is no need to write the unit.

Some entries whose results are on file:
STREPTOKINASE; 0
POVIDONE-IODINE; 0
CAPROMAB PENDETIDE; 0

Asked: Given INTERFERON BETA , state its recorded Hepatotoxicity (acute).
Given back: 31.2

Asked: Given ETARACIZUMAB , state its recorded Hepatotoxicity (acute).
Given back: 0

Asked: Given GONADOTROPIN, SERUM , state its recorded Hepatotoxicity (acute).
Given back: 0

Asked: Given SERRAPEPTASE , state its recorded Hepatotoxicity (acute).
Given back: 0

Asked: Given BLEOMYCIN , state its recorded Hepatotoxicity (acute).
Given back: 0

Entry source: ChEMBL document CHEMBL3137667
